The values you see were collected from the nanobody polyreactivity screen of Harvey et al. (2022).

assay comment: yeast display, Sf9 membrane polyspecificity reagent, FACS + sequencing; frameworks hold sequencing errors
parameter: polyreactivity (PSR sort gate)

Some entries whose results are on file:
{"biopolymer sequence": "QVQRVETAGRLVQARGSLRLSCAPSGIIFKRNAIGWYRQAPGKEREFVAAISSSGDTTYYADSVKGRFTISRDNAKNTVYLQMNSLKPEDTAVYYCAKPIRTSRARGMYYWGQGTEVTVSS", "polyreactivity (PSR sort gate)": "high polyreactivity"}
{"biopolymer sequence": "QVQLVESGGGLVQAGGSLRLSCAASGRTFWPYAMGWYRQAPGKERELVARITASGGRTYYADSVKWRFTISRDNAKNTVYLQMNSLKPEDTAVYYCATSYSTRIWTWRAGDYWGQGSQVTVSS", "polyreactivity (PSR sort gate)": "high polyreactivity"}
{"biopolymer sequence": "QVQLVESGGGLVQAGGSLRLSCAASGSIRYYAMGWYRQAPGKERELVAAISSRGTNTYYADSVKGRFTISRDNAKNTVYLQMNSLKPEDTAVYYCNAVVGLGYNYWGQGTQVTVSS", "polyreactivity (PSR sort gate)": "high polyreactivity"}
{"biopolymer sequence": "QVQLVESGGGLVQAGGSLRVSCAASGIIFYGYAMGWYRQAPGKEMELVAVITSGGSTNYADSVKGRFTISRDNAKNTVYLQMNSLKPEDTAVYYCAAKYHYFGFRYDYWGQGTQVTVSS", "polyreactivity (PSR sort gate)": "high polyreactivity"}
{"biopolymer sequence": "QVQLVESGGGLVQAGGSLRLSCGASGRTFISNAMGWYRQAPGKERELVATINSGGSTNYADSVKGRFTISRDNAKNTVYLQMNSLKPEDTAVYYCARRVRYKHYDYWGQGTQVTVSS", "polyreactivity (PSR sort gate)": "high polyreactivity"}
{"biopolymer sequence": "QVQLVESGGGLVQAGGSLRLSCAASGSIFSYYAMGWSRQAPGKERELVATISWSGGSTYYADSVKGRFTISRDNAKNTVYLQMNSLKPEDTAVYYCAARIWTGRGRKLGYGYDYWGQGTQVTVSS", "polyreactivity (PSR sort gate)": "low polyreactivity"}
{"biopolymer sequence": "QVQVVESGGGLVQAGGSLRLSCAASGSFFTRYAIGWYRQAPGKERELVAAISGSGGSTYYADSVKGLFTISRDNAKITVSLQMNSLKPEDTAVYYCAARDYWGQGTQVTVSS", "polyreactivity (PSR sort gate)": "high polyreactivity"}
{"biopolymer sequence": "QVQLVESGGGLVQAGGSLRLSCAASGSIIPLYAMGWYRQAPGKERELVATINRRTGSTYADSVKGRFTISRDNAKNTVYLQMNSLKPEDTAVYYCNAADNYVRFYKTRIYNYWGQGTQVTVSS", "polyreactivity (PSR sort gate)": "high polyreactivity"}

Reported polyreactivity (PSR sort gate) for QVQLVESGGGLVQAGGSLRLSCAASGFTFPYNAMGWYRQAPVTERELVAAMSRGGGRTYYADSVKGRFTISRDNAKNTVNLQMNSLKPEDTAVYYCAKSPGQDTPYPYGYWGQGTQETVSS was high polyreactivity

Field polyreactivity (PSR sort gate) (entry QVQLQESGGGLVQAGGSLRLSCAASGSIFHLHIKCWYRQAPGKERESVAAISYGTSTYYADRVKGRFTICRDNAKNTVYLQMNSPKPDDTAVYYCAALFLVSKHHHYWGEGTQVTVSS ) reads low polyreactivity

Lookup result for QVQLVESGGGLVQAGGSLRLSCAASGNTFGFNAMGWYTQAPGKERELVAAIRRGSGRTYYADSVKGRFTISRDNAKNTVYLQMNSLKPEDTAVYYCAAAPTTGKRPGYYYWGLGTQVTVSS ; measured polyreactivity (PSR sort gate): high polyreactivity
